target: KRAS WT (Homo sapiens (Human), UniProt P01116); assay: KRAS WT Biochemical Assay, BODIPY-GDP Exchange TR-FRET (Example 502; 0.06 nM KRAS WT, 15 nM GDP, 300 nM SOS1, 120-minute incubation); details: read-out: KRas HTRF IC50
Sequence (P01116-2 other isoform, or with tags, fused parts or gaps): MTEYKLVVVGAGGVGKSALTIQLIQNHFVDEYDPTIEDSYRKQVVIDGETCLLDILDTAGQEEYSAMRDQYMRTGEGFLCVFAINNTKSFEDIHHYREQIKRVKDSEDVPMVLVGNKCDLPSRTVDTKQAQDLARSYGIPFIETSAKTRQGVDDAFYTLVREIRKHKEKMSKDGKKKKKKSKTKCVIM
Parameter: IC50. Scope: all listed entries.
PARAMETER: IC50 (nM)

{"MOLECULE": "Cc1cc(N)cc(-c2nc3c4c(nc(OC[C@]56CCCN5CC(F)(F)C6)nc4c2F)N2C[C@H]4CC[C@H](N4)[C@H]2[C@H](C)O3)c1C(F)(F)F", "EXPERIMENTAL SYSTEM": "KRAS WT (Homo sapiens (Human), UniProt P01116)", "PARAMETER": "IC50", "UNIT": "nM", "MEASUREMENT": 40.9}
{"MOLECULE": "Cc1c(F)c(N)cc(-c2nc3c4c(nc(OC[C@]5(CCF)CCCN5C)nc4c2F)N2C[C@H]4CC[C@H](N4)[C@H]2[C@H](C)O3)c1C(F)(F)F (single isomer, unassigned) [127 (isomer 2)]", "EXPERIMENTAL SYSTEM": "KRAS WT (Homo sapiens (Human), UniProt P01116)", "PARAMETER": "IC50", "UNIT": "nM", "MEASUREMENT": 37.7}
{"MOLECULE": "Cc1c(F)c(N)cc(-c2nc3c4c(nc(OC[C@]56CCC[C@@H]5N(C)CCC6)nc4c2F)N2C[C@H]4CC[C@H](N4)[C@H]2[C@H](C)O3)c1C(F)(F)F (single isomer, unassigned) [126 (isomer 1)]", "EXPERIMENTAL SYSTEM": "KRAS WT (Homo sapiens (Human), UniProt P01116)", "PARAMETER": "IC50", "UNIT": "nM", "MEASUREMENT": 0.42}

====

IC50 for assorted compounds
target: KRAS WT (Homo sapiens (Human), UniProt P01116); assay: KRAS WT Biochemical Assay, BODIPY-GDP Exchange TR-FRET (Example 502; 0.06 nM KRAS WT, 15 nM GDP, 300 nM SOS1, 120-minute incubation); settings: read-out: KRas HTRF IC50
PARAMETER: IC50 (nM)

{"COMPOUND": "Cc1c(F)c(N)cc(-c2nc3c4c(nc(OC[C@H]5CC[C@@H]6CN(C)C(=O)CN56)nc4c2F)N2C[C@H]4CC[C@H](N4)[C@H]2[C@H](C)O3)c1C(F)(F)F (single isomer, unassigned) [131 (isomer 3)]", "PARAMETER": "IC50", "UNIT": "nM", "MEASUREMENT": 249}
{"COMPOUND": "Cc1nc(N)cc(-c2nc3c4c(nc(OC[C@@H]5CC[C@H]6COCCN65)nc4c2F)N2C[C@H]4CC[C@H](N4)[C@H]2[C@H](C)O3)c1C(F)(F)F [Compound 112]", "PARAMETER": "IC50", "UNIT": "nM", "MEASUREMENT": 62.8}
{"COMPOUND": "Cc1c(F)c(N)cc(-c2nc3c4c(nc(OCC56CCCN5CC(F)C6F)nc4c2F)N2C[C@H]4CC[C@H](N4)[C@H]2[C@H](C)O3)c1C(F)(F)F (single isomer, unassigned) [143 (isomer 2)]", "PARAMETER": "IC50", "UNIT": "nM", "MEASUREMENT": 33.5}
{"COMPOUND": "C[C@@H]1Oc2nc(-c3nc(N)c(F)cc3C(F)(F)F)c(F)c3nc(OC[C@@]45CCCN4C[C@H](F)C5)nc(c23)N2C[C@H]3CC[C@H](N3)[C@@H]12 [Compound 84]", "PARAMETER": "IC50", "UNIT": "nM", "MEASUREMENT": 4310}
{"COMPOUND": "Cc1ccnc(-c2nc3c4c(nc(OC[C@]56CCN5CC(F)(F)C6)nc4c2F)N2C[C@H]4CC[C@H](N4)[C@H]2[C@H](C)O3)c1C(F)(F)F [Compound 88]", "PARAMETER": "IC50", "UNIT": "nM", "MEASUREMENT": 1620}
